Taken from the nanobody polyreactivity screen of Harvey et al. (2022).

Experiment: yeast display, Sf9 membrane polyspecificity reagent, FACS + sequencing; frameworks hold sequencing errors
measuredAttribute: polyreactivity (PSR sort gate)

Below, 5 sequences whose answers are already recorded.
INSERT INTO measurements (constructsequence, reportedmeasurement) VALUES
  ('QVQLVESGGGLVQAGGSRRLCCAASGITLPVYGMGWYIQAPGKERELVAVIDIVGITNYADSVKGRFPISRDNAKNTVYLMMNSLKPEDTAVYYCAKRYVYIADGGEYYYLGQGTQVTVSS', 'low polyreactivity'),
  ('QVQLVESGGGLLQAGGSLRLSCAASGFTFATYAMGWYRQAPGKERELVAAISTSGGSTYYADSVKGRFTISRDNAKNTVYLQMNSLKPEDTAVYYCNAVSRSYRYAGVPGFHYDYWGQGTQVTVSS', 'high polyreactivity'),
  ('QVQLVESGGGLVQAGGSLRLSSAASGFTFRIYAMGWYRQAPGKERELVATISWSGTSTYYADSVKGRFTISRDNAKNTVYLQMNSLKPEDTAVYYCAKDGVSFYWLNKYYYWGQGTQVTVSS', 'low polyreactivity'),
  ('QVQLVESGGGLVQAGGSLRLSCAASGSIFRANAMGGYRQAPGKERELVATISSGGSTNYADSVKGRFTISRDNAKNTVYLQMNSLKPEDTAVYYCAVKWYPPGHDYWGQGTQVTVSS', 'low polyreactivity'),
  ('QVQLVESGGGLVQAGGSLRLSCAASGGIFDTNAMGWYRQAPGKEREFVAAITGSGGSTYYADSVKGRFTISRDYAKNSVYLQMNSLKPEDTAVYYCAAPLSYYWVFIVRYGYDYWGQGTQVTVSS', 'low polyreactivity');

polyreactivity (PSR sort gate) lookup needed for QVQLVESGGGLVQAGGSLRLSSAVSGNTFGPYDMGWYRQAPGKERELVAGNTSGGSTYYADSVKGRFTISLDNAMNTVYLQMNSLKPEDTAVYYCAADYFLWVYWYDYWGQGTQVTVSS , thanks.
high polyreactivity

polyreactivity (PSR sort gate) lookup needed for QVQLEESRGGLVQAGGSLRLSCAASGRIFPVYVMGWDRQAPGKERELVAAINYNGGSTTDADSVKGRFTISRDNAKNTVDLQMNSLKPEDTAVYYCAKVGVLGYYTYYYWGQGIQVTVSS , thanks.
low polyreactivity

----------
Assay: yeast display, Sf9 membrane polyspecificity reagent, FACS + sequencing; frameworks hold sequencing errors
measuredAttribute: polyreactivity (PSR sort gate)

INSERT INTO measurements (constructsequence, reportedmeasurement) VALUES
  ('QVQLVQSGGGLVHAGGSLRLSCAASGGTFQRYVMGWYRQAPGKERELVAAISRSGSTYADSVKGRFTISRDNAKNTVYLEMNSLKPEDTAVYYCNTVYPGRDYCKFGYWGQGTQVTVSS', 'high polyreactivity'),
  ('QVQLVESGGGLVQAGGSLRLICAASGFIFRRYDMGWYRQAPGKERELVATITASVGSTNYADSVKGRFTISRDNAKNTVYLQMNSLKPEDTAVYYCATDIIGAIRVWDHTRMDYWGQGTQVTVSS', 'low polyreactivity'),
  ('QVQLVESGGGLVQAGGSLRLSCAASGSIFSYYAMGWYRQAPGKERELVAAITVRGGSTYYADSVKGRFTISRDNAKNTVYLQMNSLKPEDTGVYYCAADWLDESFSYGPYYYWGQGTQVTVSS', 'low polyreactivity'),
  ('QVQLVESGGGLVQAGGSLRLSCAASGRTFAIYVMGWYRQAPGKEMELVAAISRGGSTYYADSVKGRFTISRDNAKNTVYLQMNSLKPEDTAVYYCAAGTGTTSRYYYWGQGTQVTVSS', 'high polyreactivity'),
  ('KVQLVESGGGLVQAGGSLRLSCAASGNTFYHYAMGWYRQAPGKERELVAGIRYNGGSTYYADSVKGRFTISRDNAKNTVYLHMKSLKPEDTAVYYCATKGYTGYAYRYGYWGQGTQVTVSS', 'high polyreactivity');

polyreactivity (PSR sort gate) lookup needed for QVQLVESRGGLVQAGGSLRLSCAASGSTSRTYAMGWYRQAPGKEMELVAAISSSGGRTYYADSVKGRFTISRDNAKNTVYLLMNSLKPEDTAVYYCNARTYSYRGYNYWGQGTQVTVSS , thanks.
high polyreactivity

polyreactivity (PSR sort gate) lookup needed for QVQLVESGGGLVQAGGSLRLSCAASGRIFYSYAMGWYRQAPGKERELVATISSAGSTYYADAVKGRFTISRDNAKNTVYLQMNSLKPEDTAVYYCAARRPRRYGYWGQGTQVTVSS , thanks.
high polyreactivity

polyreactivity (PSR sort gate) lookup needed for QVQLVESGGGLVQAGGSLRLSCAASGSIFVYYTMGWYRQAPGKESELVAAISISGTSTYYADSVKGRFTISRDNAKYTVYLQLNSLKPEDTAVYYCAADTFYGEDYWGQGTQVTVSS , thanks.
low polyreactivity

----------
Experiment: yeast display, Sf9 membrane polyspecificity reagent, FACS + sequencing; frameworks hold sequencing errors
measuredAttribute: polyreactivity (PSR sort gate)

INSERT INTO assay_data (constructsequence, measuredattribute, reportedmeasurement) VALUES
  ('QVQLVESGGGLVQAGGSLRLSCAASGRSFRPYARGWYRQAPGKERELVAAISSSGGSTYYADSVKGRFTISRDNAKNTVYLQMNSLKPEDTAVYYCATYFARGYNSWGQGTQVTVSS', 'polyreactivity (PSR sort gate)', 'high polyreactivity'),
  ('QVQLVESGGGLVQAGGSLRLSCAASGLIFRRYAMGWYRQAPGKERELVAAITRNGGSTYYADSVKGRFTISRDNAKNTVYLQMNSLKPEDTAVYYCAADRYRRRGGLDYWGQGTQVTVSS', 'polyreactivity (PSR sort gate)', 'high polyreactivity'),
  ('QVQLVESGGVLVQAGGSLRLSCAASGRIFAYYTMGWYRQAPGKEREMVAAISLSGSSTYYADSVKGRFTISRDNAKNNVYLHMNSLKPEDTAVYYCNADSYAYYSWYDYWGQGTQVTVSS', 'polyreactivity (PSR sort gate)', 'low polyreactivity'),
  ('QVQLVESGGGLVQAGGSLRLSCAASGRTFVGYAMGWYRQAPGKERELVAAISGGGRTNYADSVKGRFTISRDNAKNTVYLQMISLKPEDTAVYYFAARLVKYFRPYDYWGQGTQVTVSS', 'polyreactivity (PSR sort gate)', 'high polyreactivity'),
  ('QFQLVESGGGLVQAGGSLRLSCAASGGIFYTYAMGWYRQAPAKERAFVAAISRSGGRTRYADSVKGRFTISRDNAKNTVYLQMNSLKQEDTAVYYCAARVIGAGLLKYDKWGQGTQVTVSS', 'polyreactivity (PSR sort gate)', 'high polyreactivity'),
  ('QVQIVESGGGLVQAGGTLRISCAASGFTLYYYAMGWSRQAPGKERELVAAITSSGTSTYYADSVKGRFTISRDNAKNTVYLQMNSLKPEDTAVYYCAAVSKIYHYRAVRLDDYWGQGTQVSVSS', 'polyreactivity (PSR sort gate)', 'low polyreactivity');

polyreactivity (PSR sort gate) lookup needed for QVQLVESGGGLVQAGGSLRLSCAASGGTFVGYAMGWYRQAPGKEREFVAAISGSGGSTYYADSVKGRFTISRDNAKNTVYLQMNSLKPEDTAVYYCAARAVSRRFDYWGQGTQVTVSS , thanks.
high polyreactivity

polyreactivity (PSR sort gate) lookup needed for QVQLVESGGGLVQAGGSLRLSCAASGFIFPGYAMGWYRQAPGKERELVATISRRGGSTYYADSVKGRFTISRDNAKNTVYLQMNSLQPEDTAVYYCNRIVTYGWQYDYDYWGQGTQVTVSS , thanks.
high polyreactivity

polyreactivity (PSR sort gate) lookup needed for QVQLVESGGGLVQAGGSLRLSCAASGRTMWAYSMGWYRPAHGKERELVAAITGSGGSTYYADSVKGRFTISRDNAKNTVYLQMNSLKPEDTAVYYCAAYSRTLHYDSWGQGTHVTVSS , thanks.
high polyreactivity

polyreactivity (PSR sort gate) lookup needed for QVQLVESGGGLVQAGGSLRLSCAASGSTFLYYAMGWYIQAPGKERELVAAISRSGGNTYYADSVKGRFTISRDNAKNTVYLQMNSLKPEDTAVDYCAKSPPGRGIRRLYYYWGQGTQVTVSS , thanks.
high polyreactivity

polyreactivity (PSR sort gate) lookup needed for QVQLEETGGGLVQAGGSLRLSCAASGFTIYRYALGSYRQAPGKERELVAAISSRGGTTYYADSVKGRFTISRDNAKNTVYLQMNSLKPEDTAVYYCNAGYYLTLDYWGQGTQVTVSS , thanks.
high polyreactivity

polyreactivity (PSR sort gate) lookup needed for QVQLVESGGGLVQAGGSLRLSCAASGFTFYYYAMGWYRQAPGKERELVAAISISGASTYYADSVKGRFTISRDNAKNTVYLQMNSLKPEETAVDYCAKRTKGYTYHHEYGYWGQGTQVTVSS , thanks.
low polyreactivity

polyreactivity (PSR sort gate) lookup needed for QVQLVESGGGLVQAGGSLRLSCAASGLTFYYYVMGWYRQAPGKERELVAAISYSGGRTYYADSVKGRFTISRDNAKNTVYFQMNSLKPEDTEVYYCAAQSRYGGKFYYWGQGTQVTVSS , thanks.
high polyreactivity

polyreactivity (PSR sort gate) lookup needed for QVQLEESGGGLVQAGGSLRLSCAASGSIFQQYAMGWYRQAPGKERELVAAISYSGGTTYYADSVKGRFTISRDNAKNTVYLQMNSLKPEDTAVDYCAAYYPSGSYDYYWGQGTQVTVSS , thanks.
low polyreactivity

polyreactivity (PSR sort gate) lookup needed for QVQLVESGGGLVQAGGSLRLSCAASGSTFYQSVMGWYRQAPGKERELVADITNGGSTYYADSVKGRFTISRDNAKNTVYLQMNSLKPEDTAVYYCAADGGYYWYTYWYGGLYYWGQGTQVTVSS , thanks.
high polyreactivity

polyreactivity (PSR sort gate) lookup needed for QVQLVESGGCLVQAGGSLRLSCAASGRTYVVNAMGWYRHAPGKESELVAAITTGGSTYYADSVKGRFTISRENAKYTVYLQMNSLKPEDTAVYYCAADIYLYYIFDYWVDYDYWGQCTQVTVSS , thanks.
high polyreactivity

polyreactivity (PSR sort gate) lookup needed for QVQLVESGGGLVQAGGSLRLSCAASGRTFGYNAMGWYRQAPGKERELVAAITSGGGTKYADSVKGRFTISRDNAKNTVYLQMNSLKPEDTAVYYCAATYLYEWSRFVYDGLYYWGQGTQVTVSS , thanks.
low polyreactivity

polyreactivity (PSR sort gate) lookup needed for QVQLVESGGGLVQAGGSLRLSCAASGFTFAYYAMGWYRQAPGKERELVAAISWTGGSTYYADSVKGRFTISRDNAKNTVYLQMNSLKPEDTAVYYCAARGYRYRSYDYWGQGTQVTVSS , thanks.
high polyreactivity

polyreactivity (PSR sort gate) lookup needed for QVQLVESGGGLVQAGGSLRLSCAASGRIFHTYAMGWYRQAPGKEREFVAAIRWSGGSTYYADSVKGRFTISRDNAKNTVYLQMNSLKPEDTAVYYCAREQVRYYSWFGYWGQGTQVTVSS , thanks.
high polyreactivity

polyreactivity (PSR sort gate) lookup needed for QVQLVESGGGLVKAGGSLRLSCAPSGSTFKSYSMGWYRQAPGIECELVAAITSGGRTYYADSVKGRFTISRDNAKNTVYLQMNSLKPEDTAVYYCAALRVQQVKSYYYWGQGTQVTVSS , thanks.
high polyreactivity

polyreactivity (PSR sort gate) lookup needed for QVQLVESGGGLVQAGGTLRLSCAASGFIFTGYTMGWYRQAPGKERELVARISSGDSTKYADSVKGRFTISRDNAKNTVYLQMNSLKPEDTAVYYCNKRHGTYGSVYYSREGYWGQGTQVTVSS , thanks.
high polyreactivity
